Assay read-out pKi; system under study: human PSMA (Homo sapiens (Human), UniProt Q04609).
Sequence (Q04609 whole entry): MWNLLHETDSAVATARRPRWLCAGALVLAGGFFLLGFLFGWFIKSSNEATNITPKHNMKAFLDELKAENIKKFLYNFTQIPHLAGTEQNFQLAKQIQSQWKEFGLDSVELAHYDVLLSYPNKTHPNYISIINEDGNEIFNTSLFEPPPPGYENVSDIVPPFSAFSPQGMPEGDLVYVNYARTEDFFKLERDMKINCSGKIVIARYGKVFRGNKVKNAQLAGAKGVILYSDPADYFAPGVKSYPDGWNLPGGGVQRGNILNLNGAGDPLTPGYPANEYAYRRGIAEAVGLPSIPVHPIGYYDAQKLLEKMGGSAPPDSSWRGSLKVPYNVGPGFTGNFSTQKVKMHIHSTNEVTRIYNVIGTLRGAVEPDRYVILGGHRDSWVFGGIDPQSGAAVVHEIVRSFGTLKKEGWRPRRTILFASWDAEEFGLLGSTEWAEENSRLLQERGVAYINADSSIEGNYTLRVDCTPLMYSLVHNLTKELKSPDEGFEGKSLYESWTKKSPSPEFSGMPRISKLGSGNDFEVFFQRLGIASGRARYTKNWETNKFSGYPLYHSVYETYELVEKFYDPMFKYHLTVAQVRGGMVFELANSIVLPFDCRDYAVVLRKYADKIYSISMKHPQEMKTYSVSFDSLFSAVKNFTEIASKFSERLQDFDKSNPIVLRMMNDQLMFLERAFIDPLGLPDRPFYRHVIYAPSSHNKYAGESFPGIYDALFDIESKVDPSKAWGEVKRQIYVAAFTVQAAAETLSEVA
pKi: −log10 of the molar value.
metric name: pKi

- O=C(O)CC[C@H](NC(=O)N[C@@H](CCCCNC(=O)c1cc(C(=O)NCCCC[C@H](NC(=O)N[C@@H](CCC(=O)O)C(=O)O)C(=O)O)cc(-n2cc(CCCF)nn2)c1)C(=O)O)C(=O)O: 9.80
- O=C(O)CC[C@H](NC(=O)N[C@@H](Cc1ccc(NC(=O)N2CCN(C(=O)c3ccc(-n4cc(CCCF)nn4)cc3)CC2)cc1)C(=O)O)C(=O)O: 8.47
- O=C(O)CC[C@H](NC(=O)N[C@@H](CCCCNC(=O)CCC(CCC(=O)NCCCC[C@H](NC(=O)N[C@@H](CCC(=O)O)C(=O)O)C(=O)O)NC(=O)c1ccc(-n2cc(CCCF)nn2)cc1)C(=O)O)C(=O)O: 8.96
- O=C(O)CCC(NC(=O)NC(CCCCNC(=O)CC(CC(=O)NCCCCC(NC(=O)N[C@@H](CCC(=O)O)C(=O)O)C(=O)O)NC(=O)c1ccc(-n2cc(CCCF)nn2)cc1)C(=O)O)C(=O)O (stereo in doubt): 9.70
- CN(C(=O)N[C@@H](CCC(=O)O)C(=O)O)[C@@H](CCCCNC(=O)c1ccc(-n2cc(CCCF)nn2)cc1)C(=O)O: 7.50
- O=C(O)CC[C@H](NC(=O)N[C@@H](CCCCNC(=O)N1CCN(C(=O)c2ccc(-n3cc(CCCF)nn3)cc2)CC1)C(=O)O)C(=O)O (stereo in doubt): 8.03
- O=C(O)CC[C@H](NC(=S)N(O)C(CCCCNC(=O)OCc1ccccc1)C(=O)O)C(=O)O (some centres unmarked): 7.51
- O=C(O)CC[C@H](NC(=O)N(O)[C@@H](CCCCNC(=O)c1ccc(-n2cc(CCCF)nn2)cc1)C(=O)O)C(=O)O: 7.51
- O=C(O)CCC(NC(=O)N[C@@H](CCCCNc1nc(NCCN(CCNc2ccc([N+](=O)[O-])c(NCCCCC(NC(=O)N[C@@H](CCC(=O)O)C(=O)O)C(=O)O)n2)CCNc2ccc([N+](=O)[O-])c(NCCCCC(NC(=O)N[C@@H](CCC(=O)O)C(=O)O)C(=O)O)n2)ccc1[N+](=O)[O-])C(=O)O)C(=O)O (stereo in doubt): 9.70
- O=C(O)CC[C@H](NC(=O)N[C@@H](CCCCNc1cc(OCC(COc2ccc([N+](=O)[O-])c(NCCCC[C@H](NC(=O)N[C@@H](CCC(=O)O)C(=O)O)C(=O)O)c2)n2cc(CCCF)nn2)ccc1[N+](=O)[O-])C(=O)O)C(=O)O (stereo in doubt): 9.52
- O=C(O)CC[C@H](NC(=O)N[C@@H](Cc1ccc(NC(=O)c2ccc(F)cc2)cc1)C(=O)O)C(=O)O: 9.42
- O=C(O)CC[C@@H](C(=O)O)N(O)C(=O)N[C@@H](CCCCNC(=O)Cn1cc(CCCF)nn1)C(=O)O: 6.60
- O=C(O)CCC(NC(=O)N[C@@H](Cc1ccc(NC(=O)CCC(CCC(=O)Nc2ccc(CC(NC(=O)N[C@@H](CCC(=O)O)C(=O)O)C(=O)O)cc2)(CCC(=O)Nc2ccc(C[C@H](NC(=O)NC(CCC(=O)O)C(=O)O)C(=O)O)cc2)NC(=O)CCCCn2cc(CCCF)nn2)cc1)C(=O)O)C(=O)O (some centres unmarked): 9.30
- O=C(O)CC[C@H](NC(=O)N[C@@H](Cc1ccc(NC(=O)N2CCN(C(=O)Cn3cc(CCCF)nn3)CC2)cc1)C(=O)O)C(=O)O: 8.42
- O=C(O)CC[C@H](NC(=O)N[C@@H](COCc1ccccc1)C(=O)O)C(=O)O: 8.16
- O=C(O)CC[C@H](NC(=O)NC(CC1CCN(C(=O)CCCc2ccc(-n3cc(CCCF)nn3)cc2)CC1)C(=O)O)C(=O)O (some centres unmarked): 7.89
- CN(C(=O)N[C@@H](CCC(=O)O)C(=O)O)[C@@H](CCCCn1cc(COCCOCCNc2ccc([N+](=O)[O-])cc2[N+](=O)[O-])nn1)C(=O)O: 6.50
- O=C(O)CC[C@H](NC(=O)CN(O)C(=O)CCCc1ccc(-n2cc(CCCF)nn2)cc1)C(=O)O: 6.50
